biological target: hP2X7 (Homo sapiens, UniProt Q99572); construct: expressed in transfected cells; host or cells: HEK293 cells, stably transfected (HEK-hP2X7); assay: ATP-induced ethidium+ uptake in stably transfected HEK-hP2X7 cells (flow cytometry); type: cell-based; settings: EC50 of ATP, ethidium+ uptake, pre-incubated with DMSO vehicle (Figure 2E)
measurement.label: pEC50
Please note pEC50 is a logarithmic value: minus log10 of concentration in mol/L. Answer with that number alone.

**Query** Using known records, supply pEC50 for Nc1ncnc2c1ncn2[C@@H]1O[C@H](COP(=O)(O)OP(=O)(O)OP(=O)(O)O)[C@@H](O)[C@H]1O [ATP, adenosine 5′-triphosphate]
**Result** 3.38

---

target: UniProtKB Q99572; assay: ATP-induced YO-PRO-1 uptake into human T cells (PBMCs); assay type: cell-based; design: Human peripheral blood mononuclear cells (PBMCs) were pre-incubated with DMSO (vehicle) or 30 μM 6-FPHMA; endogenous in cells; host or cells: cryopreserved human PBMCs (CD3+, CD4+, CD8+ T cells), four donors; conditions: 30 μM compound, 1 mM ATP
// reported reduction of ATP-induced YO-PRO-1 uptake into CD8+ T cells for each item listed
Write your answer as a measured quantity: the number, then the unit.

Example entries begin here.
[
  {
    "line.notation": "O=C(NCC1(N2CCN(c3ccccc3)CC2)CCOCC1)c1cccnc1Sc1ccccc1",
    "result": "80 ± 11%"
  },
  {
    "line.notation": "CCOc1ccc(Nc2ccc(/C(=C3C=C/C(=[N+](/CC)Cc4cccc(S(=O)(=O)[O-])c4)C=C/3C)c3ccc(N(CC)Cc4cccc(S(=O)(=O)O)c4)cc3C)cc2)cc1",
    "result": "72 ± 22%"
  },
  {
    "line.notation": "Cc1nc(N=Nc2ccc(S(=O)(=O)O)cc2S(=O)(=O)O)c(COP(=O)(O)O)c(C=O)c1O",
    "result": "86 ± 7%"
  }
]

Next molecule, please.
**Query** Give a short answer stating reported reduction of ATP-induced YO-PRO-1 uptake into CD8+ T cells for `N=C(N)NC(=O)c1nc(-c2cc3cnccc3o2)c(N2CCCCCC2)nc1N` .
**Result** 62 ± 4%

---

molecular target: hP2X7 (Homo sapiens); construct: expressed in transfected cells; host or cells: HEK293 cells, stably transfected (HEK-hP2X7); test: Fura-2AM Ca2+ response assay in HEK-hP2X7 cells; type: cell-based; conditions: read-out: IC50, hP2X7-mediated Ca2+ responses
measurement.label: pIC50
Please express pIC50 as -log10 of the molar concentration.

**Query** Supply measured pIC50 of `N=C(N)NC(=O)c1nc(-c2cc3cnccc3o2)c(N2CCCCCC2)nc1N` in your reply.
**Result** 6.34

---

target: hP2X7 (Homo sapiens, UniProt Q99572); construct: expressed in transfected cells; host or cells: HEK293 cells, stably transfected (HEK-hP2X7); experiment: ATP-induced ethidium+ uptake in stably transfected HEK-hP2X7 cells (flow cytometry); format: cell-based; details: EC50 of ATP, ethidium+ uptake, HEK-hP2X7 cells, no antagonist (Figure 2C)
measurement.label: EC50 (µM)
Write the number in µM without appending the unit.

**Query** For the compound Nc1ncnc2c1ncn2[C@@H]1O[C@H](COP(=O)(O)OP(=O)(O)OP(=O)(O)O)[C@@H](O)[C@H]1O [ATP, adenosine 5′-triphosphate] , give its measured EC50 value.
**Result** 466

---

biological target: cP2X7 (Canis lupus familiaris, UniProt B0FLR1); experiment: ATP-induced ethidium+ uptake in transfected HEK-cP2X7 cells
Sequence (B0FLR1 1-595): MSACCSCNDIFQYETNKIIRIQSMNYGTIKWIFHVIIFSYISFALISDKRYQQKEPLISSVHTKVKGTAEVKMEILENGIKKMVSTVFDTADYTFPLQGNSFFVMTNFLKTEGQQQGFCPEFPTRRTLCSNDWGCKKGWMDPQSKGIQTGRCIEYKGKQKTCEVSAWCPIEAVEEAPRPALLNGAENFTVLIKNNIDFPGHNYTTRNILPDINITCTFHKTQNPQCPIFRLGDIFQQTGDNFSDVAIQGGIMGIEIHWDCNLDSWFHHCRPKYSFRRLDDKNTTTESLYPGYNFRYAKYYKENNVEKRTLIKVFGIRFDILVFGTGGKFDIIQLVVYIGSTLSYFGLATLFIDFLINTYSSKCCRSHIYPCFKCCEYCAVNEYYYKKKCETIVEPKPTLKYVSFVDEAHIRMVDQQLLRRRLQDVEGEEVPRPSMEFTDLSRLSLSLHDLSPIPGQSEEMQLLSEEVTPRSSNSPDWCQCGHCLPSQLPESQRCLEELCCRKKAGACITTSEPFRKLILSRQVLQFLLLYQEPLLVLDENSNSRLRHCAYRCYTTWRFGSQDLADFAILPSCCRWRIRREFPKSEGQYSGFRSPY
measurement.label: pEC50
# reply with the number alone; pEC50 is -log10 of concentration in mol/L

**Query** Answer with the recorded pEC50 of Nc1ncnc2c1ncn2[C@@H]1O[C@H](COP(=O)(O)OP(=O)(O)OP(=O)(O)O)[C@@H](O)[C@H]1O [ATP, adenosine 5′-triphosphate] only.
**Result** 3.37

---

biological target: endogenous hP2X7 (Homo sapiens, UniProt Q99572); construct: endogenous in cells; host or cells: RPMI8226 cells; assay: ATP-induced ethidium+ uptake in RPMI8226 multiple myeloma cells (flow cytometry); type: cell-based; details: RPMI8226 cells, no antagonist
measurement.label: EC50
Please answer using the number first and the unit second.

**Query** Identify measured EC50 corresponding to Nc1ncnc2c1ncn2[C@@H]1O[C@H](COP(=O)(O)OP(=O)(O)OP(=O)(O)O)[C@@H](O)[C@H]1O [ATP, adenosine 5′-triphosphate]
**Result** 311 µM

---

target: endogenous hP2X7 (Homo sapiens); construct: endogenous in cells; experiment: ATP-induced ethidium+ uptake in RPMI8226 multiple myeloma cells (flow cytometry); conditions: read-out: IC50, hP2X7-mediated dye uptake
measurement.label: IC50 (nM)
All answers are understood in nM, so give the number only.

**Query** Read the entry `N=C(N)NC(=O)c1nc(-c2cc3cnccc3o2)c(N2CCCCCC2)nc1N` and write its reported IC50.
**Result** 580

---

tested on: endogenous hP2Y receptors, including hP2Y1, hP2Y2 and hP2Y4; assay: Fura-2AM Ca2+ response assay in non-transfected HEK293 cells; assay type: cell-based, human; conditions: 2.5 μM ATP, AUC 30-100 s; read-out: IC50, endogenous hP2Y-mediated Ca2+ responses
measurement.label: IC50 (nM)
Give just the number in nM; leave the unit off.

**Query** For `N=C(N)NC(=O)c1nc(-c2cc3cnccc3o2)c(N2CCCCCC2)nc1N` , write its IC50.
**Result** 330

---

Each entry below carries its recorded reduction of ATP-induced YO-PRO-1 uptake into CD3+ T cells.
Target: P2X7 (Homo sapiens)
Sequence (Q99572 1-595): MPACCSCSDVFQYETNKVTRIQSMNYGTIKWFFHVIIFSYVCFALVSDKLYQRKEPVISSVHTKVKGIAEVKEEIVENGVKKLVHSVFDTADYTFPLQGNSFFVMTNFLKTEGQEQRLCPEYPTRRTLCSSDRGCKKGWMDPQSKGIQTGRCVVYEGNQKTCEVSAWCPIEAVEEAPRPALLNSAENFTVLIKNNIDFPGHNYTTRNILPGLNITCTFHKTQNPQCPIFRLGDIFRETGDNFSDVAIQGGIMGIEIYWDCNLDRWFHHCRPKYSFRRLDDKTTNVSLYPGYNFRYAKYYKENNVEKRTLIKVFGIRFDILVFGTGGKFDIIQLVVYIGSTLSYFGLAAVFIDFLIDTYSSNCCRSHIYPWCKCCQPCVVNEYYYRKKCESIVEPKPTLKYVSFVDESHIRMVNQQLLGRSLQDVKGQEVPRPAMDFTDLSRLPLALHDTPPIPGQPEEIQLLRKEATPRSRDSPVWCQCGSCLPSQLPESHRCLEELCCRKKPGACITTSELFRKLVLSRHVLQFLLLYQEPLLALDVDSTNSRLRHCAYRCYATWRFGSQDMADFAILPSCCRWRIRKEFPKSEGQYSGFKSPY
Experiment: ATP-induced YO-PRO-1 uptake into human T cells (PBMCs)
Type: cell-based
Design: Human peripheral blood mononuclear cells (PBMCs) were pre-incubated with DMSO (vehicle) or 30 μM 6-FPHMA; endogenous in cells; host or cells: cryopreserved human PBMCs (CD3+, CD4+, CD8+ T cells), four donors
Settings: 30 μM compound, 1 mM ATP
Procedure: ATP-mediated uptake assays were conducted as described with either ethidium bromide or YO-PRO-1 iodide. Briefly, RPMI8226, HEK-hP2X7, HEK-mP2X7, HEK-cP2X7 or cryopreserved human peripheral blood mononuclear cells (PBMCs) were washed thrice with LDM (300× g, 5 min), resuspended in LDM and 1 × 10^6 cells were added to individual tubes. […] MFI of ethidium^+ or YO-PRO-1^2+ was determined using FlowJo.
The answer is to be given in %; state only the numeric part.

**Query** Consider the compound `Cc1nc(N=Nc2ccc(S(=O)(=O)O)cc2S(=O)(=O)O)c(COP(=O)(O)O)c(C=O)c1O` tested on P2X7 (Homo sapiens); state its reduction of ATP-induced YO-PRO-1 uptake into CD3+ T cells.
**Result** 85

---

target: hP2X7 (Homo sapiens); construct: expressed in transfected cells; host or cells: HEK293 cells, stably transfected (HEK-hP2X7); assay: Fura-2AM Ca2+ response assay in HEK-hP2X7 cells; assay type: cell-based; settings: EC50 of ATP, Ca2+ response, HEK-hP2X7 cells, no antagonist (Figure 2F), AUC 100-180 s
measurement.label: EC50 (µM)
Give your result in µM as a bare value.

**Query** Quick one: give measured EC50 for Nc1ncnc2c1ncn2[C@@H]1O[C@H](COP(=O)(O)OP(=O)(O)OP(=O)(O)O)[C@@H](O)[C@H]1O [ATP, adenosine 5′-triphosphate]
**Result** 722

---

target: UniProt:Q99571; assay: Fura-2AM Ca2+ response assay in HEK-hP2X4 cells; details: read-out: IC50, hP2X4-mediated Ca2+ flux
Sequence (Q99571 whole entry): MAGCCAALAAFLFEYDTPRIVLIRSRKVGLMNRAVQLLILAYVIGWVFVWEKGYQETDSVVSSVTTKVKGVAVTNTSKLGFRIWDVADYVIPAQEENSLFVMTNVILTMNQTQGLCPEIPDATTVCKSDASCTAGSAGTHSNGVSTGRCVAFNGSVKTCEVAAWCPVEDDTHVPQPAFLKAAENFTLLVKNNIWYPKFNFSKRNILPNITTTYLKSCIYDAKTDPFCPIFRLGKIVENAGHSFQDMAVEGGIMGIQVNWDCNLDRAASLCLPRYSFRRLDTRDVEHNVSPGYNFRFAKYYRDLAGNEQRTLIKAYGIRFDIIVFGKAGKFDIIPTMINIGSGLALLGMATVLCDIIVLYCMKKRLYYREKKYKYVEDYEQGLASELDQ
measurement.label: pIC50
pIC50 is a log-scale quantity: -log10 of the concentration expressed in molar.

**Query** Fill: pIC50 (UniProt:Q99571) for this compound `N=C(N)NC(=O)c1nc(-c2cc3cnccc3o2)c(N2CCCCCC2)nc1N`
**Result** 5.40
